Value source: patent US20240067748A1

- Assay target: T1, human TROP2 protein (Sino Biological, #10428-H08H) (human, UniProt P09758 27-274)
- T1 construct: bought protein; also called human Trop2 protein antigen (His tag); not shown: His tag
- T1 sequence (looked up): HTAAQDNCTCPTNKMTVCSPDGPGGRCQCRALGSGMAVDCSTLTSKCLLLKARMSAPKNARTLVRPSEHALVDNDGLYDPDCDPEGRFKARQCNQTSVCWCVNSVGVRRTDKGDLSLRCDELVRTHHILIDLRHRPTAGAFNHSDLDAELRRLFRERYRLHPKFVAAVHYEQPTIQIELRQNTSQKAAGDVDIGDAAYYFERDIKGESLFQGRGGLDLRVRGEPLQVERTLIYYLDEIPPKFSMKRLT
- Protocol summary: BLI, Octet RED96, AHC sensor
In this section, each of the binders is paired with its reported kon.
Answer with a number only, understood to be in M⁻¹ s⁻¹.

PR001151 (antibody, human IgG1, kappa, V domains shown, fully human IgG1/kappa; also called antibody No. (14)) VH: QVQLVESGGGVVQPGRSLRLSCAASGFTFSHYGMHWVRQAPGKGLEWVAVIWYDGIKKDYVESVKGRFTISRDNSKNTLYLQMNRLRAEDTAVYYCARDGGFGELNYYGLDVWGQGTTVTVSS VL: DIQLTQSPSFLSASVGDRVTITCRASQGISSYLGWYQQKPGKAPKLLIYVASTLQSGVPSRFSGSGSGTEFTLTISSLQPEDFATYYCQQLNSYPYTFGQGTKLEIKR	113000
PR001153 (antibody, human IgG1, kappa, V domains shown, fully human IgG1/kappa; also called antibody No. (16)) VH: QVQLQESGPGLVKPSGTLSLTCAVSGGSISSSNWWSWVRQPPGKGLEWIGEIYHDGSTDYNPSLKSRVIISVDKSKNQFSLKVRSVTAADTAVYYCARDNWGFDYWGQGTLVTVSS VL: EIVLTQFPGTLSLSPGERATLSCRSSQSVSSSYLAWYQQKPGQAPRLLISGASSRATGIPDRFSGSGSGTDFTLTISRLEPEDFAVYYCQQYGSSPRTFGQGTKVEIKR	78600
PR001156 (antibody, human IgG1, kappa, V domains shown, fully human IgG1/kappa; also called antibody No. (19)) VH: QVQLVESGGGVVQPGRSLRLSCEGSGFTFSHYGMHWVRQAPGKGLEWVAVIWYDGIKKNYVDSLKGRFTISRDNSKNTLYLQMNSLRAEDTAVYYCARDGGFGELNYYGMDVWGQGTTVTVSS VL: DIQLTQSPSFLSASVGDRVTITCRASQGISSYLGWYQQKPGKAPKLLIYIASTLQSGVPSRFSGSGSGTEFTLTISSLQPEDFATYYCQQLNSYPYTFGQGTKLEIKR	183000
PR001134 (antibody, human IgG1, kappa, V domains shown, fully human IgG1/kappa; also called antibody No. (6)) VH: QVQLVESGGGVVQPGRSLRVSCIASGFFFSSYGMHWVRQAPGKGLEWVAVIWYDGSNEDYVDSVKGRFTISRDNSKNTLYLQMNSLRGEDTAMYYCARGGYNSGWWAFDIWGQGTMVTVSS VL: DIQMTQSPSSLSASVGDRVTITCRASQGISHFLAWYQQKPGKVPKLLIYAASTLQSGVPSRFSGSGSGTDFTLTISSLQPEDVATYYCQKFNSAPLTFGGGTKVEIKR	83100

Now take the following binder into account.
[Q] For the binder PR001152 (antibody, human IgG1, kappa, V domains shown, fully human IgG1/kappa; also called antibody No. (15)) VH: QVQLVESGGAVVQPGRSLRLSCAASGFTFSHYGMHWVRQAPGKGLEWVAVIWYDGIKSYYVESVKGRFTISRDNSKNTLYLQMDRLRAEDTAVYYCARDGGFGESNYYGLDVWGQGTTVTVSS VL: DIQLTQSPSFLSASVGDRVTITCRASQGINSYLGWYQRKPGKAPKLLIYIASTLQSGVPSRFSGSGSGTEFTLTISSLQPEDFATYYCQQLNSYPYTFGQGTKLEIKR , what kon is on record?
[A] 154000
